Data origin: ChEMBL document CHEMBL1156274

- TGT: Disintegrin and metalloproteinase domain-containing protein 17 (Homo sapiens, UniProt P78536)
- Sequence (P78536 whole entry, the tested form may be a part): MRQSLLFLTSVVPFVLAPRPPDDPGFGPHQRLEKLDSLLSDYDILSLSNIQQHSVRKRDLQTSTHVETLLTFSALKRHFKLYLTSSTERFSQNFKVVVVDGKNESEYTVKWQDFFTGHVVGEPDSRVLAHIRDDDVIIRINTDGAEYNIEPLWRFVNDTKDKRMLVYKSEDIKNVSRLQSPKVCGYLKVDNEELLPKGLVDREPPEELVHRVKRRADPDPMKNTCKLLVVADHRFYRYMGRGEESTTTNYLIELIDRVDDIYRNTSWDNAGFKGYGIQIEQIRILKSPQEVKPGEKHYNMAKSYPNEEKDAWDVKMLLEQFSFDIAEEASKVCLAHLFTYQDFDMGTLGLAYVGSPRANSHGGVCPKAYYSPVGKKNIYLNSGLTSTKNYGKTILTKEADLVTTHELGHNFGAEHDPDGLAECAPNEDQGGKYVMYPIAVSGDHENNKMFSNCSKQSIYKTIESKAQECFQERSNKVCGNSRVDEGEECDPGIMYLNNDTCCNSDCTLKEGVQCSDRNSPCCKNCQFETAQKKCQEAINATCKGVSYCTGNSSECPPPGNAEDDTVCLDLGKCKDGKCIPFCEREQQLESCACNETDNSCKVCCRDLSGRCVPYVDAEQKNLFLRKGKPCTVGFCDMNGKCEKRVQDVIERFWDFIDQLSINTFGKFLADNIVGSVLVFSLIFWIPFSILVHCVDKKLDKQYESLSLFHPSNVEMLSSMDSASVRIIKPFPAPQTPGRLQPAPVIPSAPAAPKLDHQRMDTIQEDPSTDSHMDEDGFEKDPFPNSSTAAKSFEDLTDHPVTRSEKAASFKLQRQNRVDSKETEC
- EXPERIMENT NOTES: Inhibition of ADAM17 in human MDA-MB-468 cells assessed as inhibition of constitutive sALCAM release by ELISA
- Type: cell-based
QUANTITY NAME: pIC50
Entry type: numeric. Quantity: pIC50, the -log10 of concentration in molar units.

These solved cases illustrate the format of a correct answer.
CC#CCOc1ccc(S(=O)(=O)N[C@H](CCN2C(=O)c3ccccc3C2=O)C(=O)NO)cc1 = 5.77
CC#CCOc1ccc(S(=O)(=O)N[C@H](CCNC(=O)OCc2ccccc2)C(=O)NO)cc1 = 6.38

# ---- query compound ----
QUERY: Any idea what its pIC50 is? The compound is COc1ccc(S(=O)(=O)N(Cc2cccnc2)[C@@H](C(=O)NO)C(C)C)cc1.Cl [CGS-27023A]
RESULT: 5.85

====

pIC50 reference
- TGT: Disintegrin and metalloproteinase domain-containing protein 17 (Homo sapiens, UniProt P78536)
- EXPERIMENT NOTES: Inhibition of ADAM17 in human MCF7 cells assessed as inhibition of EGF-induced sALCAM release by ELISA
- Format: cell-based
Entry type: numeric. Quantity: pIC50, the -log10 of concentration in molar units.

COc1ccc(S(=O)(=O)N(Cc2cccnc2)[C@@H](C(=O)NO)C(C)C)cc1.Cl [CGS-27023A] = 5.52

QUERY: Any idea what its pIC50 is? The compound is CC#CCOc1ccc(S(=O)(=O)N[C@H](CCN2C(=O)c3ccccc3C2=O)C(=O)NO)cc1
RESULT: 6.12

QUERY: Any idea what its pIC50 is? The compound is CC#CCOc1ccc(S(=O)(=O)N[C@H](CCNC(=O)OCc2ccccc2)C(=O)NO)cc1
RESULT: 6.38

====

- TGT: Disintegrin and metalloproteinase domain-containing protein 17 (Homo sapiens, UniProt P78536)
- EXPERIMENT NOTES: Inhibition of human recombinant ADAM17 by fluorometric assay
Criterion: IC50 strictly less than 0.1 µM. Met: criterion met. Not met: criterion not met.

Before answering, review these 5 worked examples.
O=C(NO)[C@@H](CCN1C(=O)c2ccccc2C1=O)NS(=O)(=O)c1ccc(-c2ccccc2C(F)(F)F)cc1 = criterion not met
CC#CCOc1ccc(S(=O)(=O)N(CC(C)C)[C@H](CCN2C(=O)c3ccccc3C2=O)C(=O)NO)cc1 = criterion met
CC#CCOc1ccc(S(=O)(=O)N[C@H](CCN2C(=O)c3ccccc3C2=O)C(=O)NO)cc1 = criterion met
COc1ccc(S(=O)(=O)N(CC(=O)NO)OC(C)C)cc1 = criterion not met
CC#CCOc1ccc(S(=O)(=O)N[C@H](CCNC(=O)OCc2ccccc2)C(=O)NO)cc1 = criterion met

QUERY: Identify whether the compound CC(=O)NCC[C@@H](NS(=O)(=O)c1ccc(Br)cc1)C(=O)NO records IC50 below 0.1 µM.
RESULT: criterion not met

====

- TGT: Disintegrin and metalloproteinase domain-containing protein 17 (Homo sapiens)
- EXPERIMENT NOTES: Inhibition of ADAM17 in human MDA-MB-468 cells assessed as inhibition of pervanadate-induced sALCAM release by ELISA
- Assay type: cell-based
QUANTITY NAME: IC50 (nM)
Expressed in nM, but write only the number.

CC#CCOc1ccc(S(=O)(=O)N[C@H](CCNC(=O)OCc2ccccc2)C(=O)NO)cc1 = 1100
COc1ccc(S(=O)(=O)N(Cc2cccnc2)[C@@H](C(=O)NO)C(C)C)cc1.Cl [CGS-27023A] = 10000

QUERY: Quick check: IC50 on Disintegrin and metalloproteinase domain-containing protein 17 (Homo sapiens), item CC#CCOc1ccc(S(=O)(=O)N[C@H](CCN2C(=O)c3ccccc3C2=O)C(=O)NO)cc1 ?
RESULT: 800

====

- TGT: Matrix metalloproteinase-9 (Homo sapiens, UniProt P14780)
- Sequence (P14780 whole entry): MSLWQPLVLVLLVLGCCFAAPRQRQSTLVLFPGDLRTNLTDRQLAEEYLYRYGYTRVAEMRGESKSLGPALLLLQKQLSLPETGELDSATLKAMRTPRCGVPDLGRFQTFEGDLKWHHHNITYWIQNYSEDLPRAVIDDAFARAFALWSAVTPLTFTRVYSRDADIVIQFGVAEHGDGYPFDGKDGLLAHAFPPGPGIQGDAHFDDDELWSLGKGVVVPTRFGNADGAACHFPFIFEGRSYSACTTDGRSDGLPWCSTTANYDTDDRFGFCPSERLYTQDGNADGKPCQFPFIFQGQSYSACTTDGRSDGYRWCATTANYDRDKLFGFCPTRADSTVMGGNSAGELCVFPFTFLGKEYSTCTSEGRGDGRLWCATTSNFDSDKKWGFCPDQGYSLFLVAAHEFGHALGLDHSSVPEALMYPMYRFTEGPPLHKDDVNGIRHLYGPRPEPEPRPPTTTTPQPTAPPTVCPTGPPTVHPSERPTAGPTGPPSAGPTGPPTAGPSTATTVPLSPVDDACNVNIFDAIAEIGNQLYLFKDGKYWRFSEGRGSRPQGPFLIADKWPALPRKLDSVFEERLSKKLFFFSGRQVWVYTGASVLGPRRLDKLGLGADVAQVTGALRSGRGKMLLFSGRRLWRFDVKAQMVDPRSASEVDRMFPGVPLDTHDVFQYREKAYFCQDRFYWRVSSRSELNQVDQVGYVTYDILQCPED
log10 IC50 reference
Would you kindly interpret these values as log10 of IC50 expressed in nM?

These solved cases illustrate the format of a correct answer.
COc1ccc(S(=O)(=O)N(OC(C)C)[C@@H](C(=O)NO)C(C)C)cc1 = 2.23
O=C(NO)[C@@H](CCN1C(=O)c2ccccc2C1=O)NS(=O)(=O)c1ccc(Br)cc1 = 0.04
CC#CCOc1ccc(S(=O)(=O)N[C@H](CCN2C(=O)c3ccccc3C2=O)C(=O)NO)cc1 = 0.54

QUERY: Any idea what its log10 IC50 is? The molecule is CC(=O)NCC[C@@H](NS(=O)(=O)c1ccc(-c2ccccc2)cc1)C(=O)NO
RESULT: 0.93

QUERY: Any idea what its log10 IC50 is? The molecule is CC#CCOc1ccc(S(=O)(=O)N[C@H](CCNC(=O)OCc2ccccc2)C(=O)NO)cc1
RESULT: 1.66

====

pIC50 reference
- TGT: Disintegrin and metalloproteinase domain-containing protein 17 (Homo sapiens, UniProt P78536)
- TEST CONTEXT: A2774
- Description: Inhibition of ADAM-17-mediated sALCAM release in human A2774 cells at 10 uM by ELISA
Entry type: numeric. Quantity: pIC50, the -log10 of concentration in molar units.

CC#CCOc1ccc(S(=O)(=O)N[C@H](CCNC(=O)OCc2ccccc2)C(=O)NO)cc1 = 7.96

# ---- query compound ----
QUERY: Any idea what its pIC50 is? The compound is CC#CCOc1ccc(S(=O)(=O)N[C@H](CCN2C(=O)c3ccccc3C2=O)C(=O)NO)cc1
RESULT: 7.82

====

- TGT: Disintegrin and metalloproteinase domain-containing protein 17 (Homo sapiens, UniProt P78536)
- EXPERIMENT NOTES: Inhibition of ADAM17 in human MCF7 cells assessed as inhibition of pervanadate-induced sALCAM release by ELISA
- Assay type: cell-based
QUANTITY NAME: IC50
Quick note: number first, unit second.

CC#CCOc1ccc(S(=O)(=O)N[C@H](CCNC(=O)OCc2ccccc2)C(=O)NO)cc1 = 0.053 µM
COc1ccc(S(=O)(=O)N(Cc2cccnc2)[C@@H](C(=O)NO)C(C)C)cc1.Cl [CGS-27023A] = 0.75 µM

QUERY: Any idea what its IC50 is? The compound is CC#CCOc1ccc(S(=O)(=O)N[C@H](CCN2C(=O)c3ccccc3C2=O)C(=O)NO)cc1
RESULT: 0.051 µM

====

Assay system Matrix metalloproteinase-9 (Homo sapiens); read-out recorded as pIC50.
Entry type: numeric. Quantity: pIC50, the -log10 of concentration in molar units.

CC#CCOc1ccc(S(=O)(=O)N(CC(C)C)[C@H](CCN2C(=O)c3ccccc3C2=O)C(=O)NO)cc1 = 7.89
COc1ccc(S(=O)(=O)N(CC(=O)NO)OC(C)C)cc1 = 5.39
O=C(CNS(=O)(=O)c1ccc(Br)cc1)NO = 6.54

# ---- query compound ----
QUERY: Any idea what its pIC50 is? The compound is CC(=O)NCC[C@@H](NS(=O)(=O)c1ccc(Br)cc1)C(=O)NO
RESULT: 6.72
